- measurementTarget: GST
- assayName: SPOT array
- recordedConditions: median of control spots 978
readoutKind: SPOT intensity

binder | readoutKind | observedResult
ANNQGPPNLPARDKS | SPOT intensity | 1

[a] DKKTKPTPPPKPSHL
[b] FTLPPPPPPPGLDEL
Of a and b , which one carries the higher reported SPOT intensity? Selection: enter the item's label. b
